system: exploration response in mice; experiment: Psychostimulating activity: increase of exploration response in mice (actimetry); format: in vivo; conditions: Mus musculus, po, per os, dose which increases exploration response by 50%
Lab note: compare ED50 with 50 mg/kg, writing Met if less and Not met if equal or more.

Take the compound N#CCCN1CCN(CCOC(c2ccccc2)c2ccccc2)CC1 and say whether its ED50 is less than 50 mg/kg.
Met

Below 50 mg/kg on ED50? Entry O=C(O)CN1CCN(CCOC(c2ccccc2)c2ccccc2)CC1
Not met

Hi there! Is ED50 for COC(=O)CCCCN1CCN(CCOC(c2ccc(F)cc2)c2ccc(F)cc2)CC1 below 50 mg/kg, do you know?
Met

Is the reported ED50 for Cc1ccc(C(OCCN2CCN(CCC(=O)O)CC2)c2ccccc2)cc1 (centres unmarked) strictly below 50 mg/kg?
Not met

* * *

system: exploration response in mice; test: Psychostimulating activity: increase of exploration response in mice (actimetry); format: in vivo; conditions: Mus musculus, po, per os, dose which increases exploration response by 50%
# ED50 per entry
The reply should contain only the number, in mg/kg.

// known answers, use as guide
- compound: "CCOC(=O)CCN1CCN(CCCOC(c2ccccc2)c2ccccc2)CC1"
  obs value: 50
- compound: "O=C(O)CN1CCN(CCOC(c2ccccc2)c2ccc(F)cc2)CC1 (stereo not shown)"
  obs value: 60

Recorded ED50 for CCOC(=O)CCCN1CCN(CCOC(c2ccc(F)cc2)c2ccc(F)cc2)CC1 , please?
50

* * *

assay: Acute toxicity (LD50) in mice, per os; conditions: mouse, in vivo, po
This listing pairs compounds with measured LD50.
Answer in mg/kg, number only, no unit symbol.

Record excerpt, results attached:
- compound: "CCOC(=O)CCN1CCN(CCOC(c2ccccc2)c2ccc(Cl)cc2)CC1 (stereo not shown)"
  LD50 (mg/kg): 1400
- compound: "O=C(O)CCN1CCN(CCOC(c2ccccc2)c2cccc(C(F)(F)F)c2)CC1 (stereo not shown)"
  LD50 (mg/kg): 1200
- compound: "CCOC(=O)CCN1CCN(CCCOC(c2ccccc2)c2ccc(F)cc2)CC1 (stereo not shown)"
  LD50 (mg/kg): 800
- compound: "O=C(O)CCN1CCN(CCOC(c2ccccc2)c2ccc(Cl)cc2)CC1 (stereo not shown)"
  LD50 (mg/kg): 1000
- compound: "Cc1ccc(C(OCCN2CCN(CCC(=O)O)CC2)c2ccccc2)cc1 (stereo not shown)"
  LD50 (mg/kg): 1400
- compound: "O=C(O)CN1CCN(CCOC(c2ccccc2)c2ccc(F)cc2)CC1 (stereo not shown)"
  LD50 (mg/kg): 1600
- compound: "O=C(O)CCN1CCN(CCOC(c2ccc(F)cc2)c2ccc(F)cc2)CC1"
  LD50 (mg/kg): 700
- compound: "O=C(O)CCCN1CCN(CCOC(c2ccccc2)c2ccccc2)CC1"
  LD50 (mg/kg): 1500
- compound: "CCOC(=O)CN1CCN(CCOC(c2ccc(F)cc2)c2ccc(F)cc2)CC1"
  LD50 (mg/kg): 1200
- compound: "CCOC(=O)CCN1CCN(CCOC(c2ccccc2)c2ccccc2Cl)CC1 (stereo not shown)"
  LD50 (mg/kg): 1600

Could you share which LD50 value was measured for CCOC(=O)CCCN1CCN(CCOC(c2ccccc2)c2ccc(F)cc2)CC1 (stereo not shown) ?
700

Which LD50 reading was recorded for the compound COc1ccccc1C(OCCN1CCN(CCC(=O)O)CC1)c1ccccc1 (stereo not shown) ?
1400

Which measured LD50 value corresponds to CCCC(OCCN1CCN(CCC(=O)OCC)CC1)c1ccc(F)cc1 (stereo not shown) ?
1600
